Below is a list of entries, each paired with its recorded Relative activity value.
- System: alpha-1,2-fucosyltransferase His6-Propeptide-WbgL
- MEASUREMENT DESCRIPTION: Acceptor substrate spectrum by HPAEC-PAD activity assay
- Assay type: biochemical, Escherichia coli O126
- TEST SETTINGS: acceptor substrate instead of 5 mM lactose; 2 mM GDP-β-L-fucose; relative to lactose

{"columns": ["COMPOUND", "Relative activity (%)"],
 "data": [
  ["CC(=O)NC1C(O)OC(CO)C(OC2OC(CO)C(O)C(O)C2NC(C)=O)C1O (stereo not drawn)", 0],
  ["CC(=O)N[C@H]1C(O)O[C@H](CO)[C@H](O)[C@@H]1O (stereo partly drawn)", 0],
  ["N[C@H]1C(O)O[C@H](CO)[C@H](O)[C@@H]1O (stereo partly drawn)", 0],
  ["OC[C@H]1O[C@@H](O[C@@H]2[C@@H](CO)OC(O)(CO)[C@H]2O)[C@H](O)[C@@H](O)[C@H]1O (mixture of isomers)", 124],
  ["CC(=O)N[C@@H]1[C@@H](O[C@@H]2O[C@H](CO)[C@H](O)[C@H](O)[C@H]2O)[C@H](O)[C@@H](CO)O[C@@H]1O", 28],
  ["OC[C@H]1O[C@@H](O[C@H]2[C@H](O)[C@@H](O)C(O)O[C@@H]2CO)[C@H](O)[C@@H](O)[C@H]1O (stereo partly drawn)", 100],
  ["CC(=O)N[C@H]1C(O)O[C@H](CO)[C@@H](O[C@@H]2O[C@H](CO)[C@H](O)[C@H](O)[C@H]2O)[C@@H]1O (stereo partly drawn)", 95],
  ["OC[C@H]1O[C@@H](O[C@H]2[C@H](O)[C@@H](O)[C@H](OCc3ccccc3)O[C@@H]2CO)[C@H](O)[C@@H](O)[C@H]1O", 50],
  ["O=C[C@H](O)[C@@H](O)[C@@H](O)[C@H](O)CO", 71]
]}
